- System: HeLa MZ
- ASSAY DETAILS: whole-cell filipin (free cholesterol) integrated intensity, Z-score; higher = more cholesterol staining
- PROTOCOL CONDITIONS: compound concentration in added solution (µM; 5 µl added to 20 µl cells): 10; 18 h
Where a name gives a salt, the structure may show the parent alone.
Binary call on whole-cell filipin (z-score): y from -0.5 upward, n beneath that.

Req: Reported whole-cell filipin (z-score) at or above -0.5? CN(C)CC/C=C1/c2ccccc2Sc2ccc(Cl)cc21 [Chlorprothixene hydrochloride]
Resp: y

Req: Could you please find out whether CC[N+](C)(C)c1cccc(O)c1 [Edrophonium chloride] has whole-cell filipin (z-score) that meets -0.5 or exceeds it?
Resp: n

Req: Please indicate if the recorded whole-cell filipin (z-score) for CN1CCN2c3ccccc3Cc3ccccc3C2C1 (configuration not stated) [Mianserine hydrochloride] meets or exceeds -0.5.
Resp: y

Req: Confirm if whole-cell filipin (z-score) reported for the molecule COc1ccc(C(=O)NCc2ccc(OCCN(C)C)cc2)cc1OC [Itopride] is -0.5 or above.
Resp: n

Req: Does the reported whole-cell filipin (z-score) for C[C@]12CC[C@@H]3c4ccc(O)cc4CC[C@H]3[C@@H]1C[C@@H](O)[C@@H]2O [Estriol] fall at or above the -0.5 mark?
Resp: n

Req: Check this molecule for whole-cell filipin (z-score) at or above -0.5: NC(=O)C(c1ccccc1)(c1ccccc1)[C@@H]1CCN(CCc2ccc3c(c2)CCO3)C1 [Darifenacin hydrobromide]
Resp: y

Req: Textbook exercise: given the entry CC(C)(O)c1ccccc1CC[C@@H](SCC1(CC(=O)O)CC1)c1cccc(/C=C/c2ccc3ccc(Cl)cc3n2)c1 [Montelukast] , state whether its whole-cell filipin (z-score) is greater than or equal to -0.5.
Resp: y

Req: API: above_or_equal(metric=whole-cell filipin (z-score), cutoff=-0.5) for item CN(C)C(=N)NC(=N)N [Metformin hydrochloride]
Resp: y

Req: Check if whole-cell filipin (z-score) >= -0.5 (inclusive). Item: CCC(=O)O[C@]1(C(=O)CCl)[C@@H](C)C[C@H]2[C@@H]3CCC4=CC(=O)C=C[C@]4(C)[C@@]3(F)[C@@H](O)C[C@@]21C [Clobetasol propionate]
Resp: y

Req: Has NC(=O)N/N=C/c1ccc([N+](=O)[O-])o1 [Nitrofural] a recorded whole-cell filipin (z-score) greater than or equal to -0.5?
Resp: y

Req: Determine whether measured whole-cell filipin (z-score) meets or exceeds -0.5 for N=C(N)c1ccc(OCCCCCOc2ccc(C(=N)N)cc2)cc1 [Pentamidine isethionate]
Resp: n

Req: Is whole-cell filipin (z-score) at least -0.5? Consider CO[C@@]1(NC(=O)CSCC#N)C(=O)N2C(C(=O)O)=C(CSc3nnnn3C)CS[C@@H]21 [Cefmetazole sodium salt]
Resp: y

Req: Given the entry CC(=O)OCC1=C(C(=O)O)N2C(=O)[C@@H](NC(=O)Cc3cccs3)[C@H]2SC1 [Cephalothin sodium salt] , answer whether its whole-cell filipin (z-score) meets or surpasses -0.5.
Resp: y

Req: Reported whole-cell filipin (z-score) reaches at least -0.5 for Nc1nnc(-c2cccc(Cl)c2Cl)c(N)n1 [Lamotrigine] ?
Resp: y

Req: Check the entry COc1ccccc1Oc1c(NS(=O)(=O)c2ccc(C(C)(C)C)cc2)nc(-c2ncccn2)nc1OCCO [Bosentan] : does whole-cell filipin (z-score) equal or exceed -0.5?
Resp: y

###

Provide the reported filipin (z-score) of each item.
- System: A431
- ASSAY DETAILS: filipin (cholesterol) integrated intensity within LBPA endosomes, Z-score; higher = more cholesterol in LBPA endosomes
- PROTOCOL CONDITIONS: compound concentration in added solution (µM; 5 µl added to 20 µl cells): 10; 18 h
Structures can show the parent of a compound that is named as a salt.
# print the numeric value only

Req: Under A431: filipin (z-score) value of COc1ccc2[nH]c([S+]([O-])Cc3ncc(C)c(OC)c3C)nc2n1 (centres undefined) ?
Resp: -0.438

Req: // map CC(N/C(=N\C#N)Nc1ccncc1)C(C)(C)C (centres undefined) to recorded filipin (z-score) (system: A431)
Resp: -0.45

Req: Entry Cn1nnnc1SCC1=C(C(=O)O)N2C(=O)[C@@H](NC(=O)[C@H](O)c3ccccc3)[C@H]2SC1 [Cefamandole sodium salt] , system A431: what filipin (z-score) was measured?
Resp: -0.431

Req: For the record CCn1cc(C(=O)O)c(=O)c2cc(F)c(N3CCNCC3)cc21 , what value of filipin (z-score) is listed for A431?
Resp: -0.584

Req: State its filipin (z-score) on A431: CCCOc1ccc(C(=O)OCCN(CC)CC)cc1N [Proparacaine hydrochloride]
Resp: -0.454

Req: Lab note: need filipin (z-score) for CN1[C@@H]2CC[C@H]1C[C@@H](OC(=O)c1c[nH]c3ccccc13)C2 [Tropisetron HCl] on A431, anyone have it?
Resp: -0.29

Req: Any idea what filipin (z-score) came out for CCCc1nn(C)c2c(=O)[nH]c(-c3cc(S(=O)(=O)N4CCN(C)CC4)ccc3OCC)nc12 on A431?
Resp: -0.415

Req: # returns recorded filipin (z-score) (system: A431) for Clc1ccc(CCC(Cn2ccnc2)Sc2c(Cl)cccc2Cl)cc1 (centres undefined) [Butoconazole nitrate]
Resp: 2.22

Req: I'm curious: which filipin (z-score) was measured for CN(C)CCCN1c2ccccc2Sc2ccc(C(F)(F)F)cc21 [Triflupromazine hydrochloride] tested on A431?
Resp: 2.23

###

- Test system: A431
- ASSAY DETAILS: LBPA endosome anti-LBPA integrated intensity (sum per cell), Z-score; higher = more LBPA staining
- PROTOCOL CONDITIONS: compound concentration in added solution (µM; 5 µl added to 20 µl cells): 10; 18 h
Counter-ions that a name gives are not always drawn.
MEASURED PROPERTY: LBPA endosome anti-LBPA integrated intensity (z-score)

Req: What value of LBPA endosome anti-LBPA integrated intensity (z-score) has been reported for the following molecule? CCN(CC)C(=O)Nc1ccc(OCC(O)CNC(C)(C)C)c(C(C)=O)c1 (centres undefined) [Celiprolol HCl]
Resp: 0.0633

Req: Recorded LBPA endosome anti-LBPA integrated intensity (z-score) for C#C[C@]1(O)CC[C@H]2[C@@H]3CCC4=Cc5oncc5C[C@]4(C)[C@H]3CC[C@@]21C , please?
Resp: -0.455

Req: I am curious: what LBPA endosome anti-LBPA integrated intensity (z-score) value has been reported for c1ccc(CN(CC2=NCCN2)c2ccccc2)cc1 [Antazoline hydrochloride] ?
Resp: -0.107

Req: Using the record for CC(=O)Nc1c(I)c(C(=O)N[C@H]2C(O)O[C@H](CO)[C@@H](O)[C@@H]2O)c(I)c(N(C)C(C)=O)c1I (some centres undefined) [Metrizamide] , report its LBPA endosome anti-LBPA integrated intensity (z-score).
Resp: -0.495

Req: Returns the measured LBPA endosome anti-LBPA integrated intensity (z-score) for the input molecule. Input: CC(C)NC[C@@H](O)COc1cccc2ccccc12 [(R)-Propranolol hydrochloride]
Resp: 0.16

Req: Quick check: LBPA endosome anti-LBPA integrated intensity (z-score) of Cc1nccn1CC1CCc2c(c3ccccc3n2C)C1=O (centres undefined) [Ondansetron Hydrochloride] ?
Resp: 0.526

Req: Which LBPA endosome anti-LBPA integrated intensity (z-score) is reported for this molecule? COC(=O)Nc1nc2cc(C(=O)c3ccc(F)cc3)ccc2[nH]1
Resp: -0.354

Req: Can you share its LBPA endosome anti-LBPA integrated intensity (z-score)? I mean this molecule: Cc1cn([C@H]2C=C[C@@H](CO)O2)c(=O)[nH]c1=O
Resp: -0.301

Req: What value of LBPA endosome anti-LBPA integrated intensity (z-score) has been reported for the following molecule? CCCCOC(=O)c1ccc(N)cc1
Resp: -0.33

###

- System: A431
- ASSAY DETAILS: filipin (cholesterol) integrated intensity within LBPA endosomes, Z-score; higher = more cholesterol in LBPA endosomes
- PROTOCOL CONDITIONS: compound concentration in added solution (µM; 5 µl added to 20 µl cells): 10; 18 h
Structures can show the parent of a compound that is named as a salt.
filipin (z-score) below -0.5 gives n; filipin (z-score) at or above it gives y.

Req: hey, is filipin (z-score) for this one >= -0.5? Cc1cccc(Nc2ccncc2S(=O)(=O)NC(=O)NC(C)C)c1 [Torsemide]
Resp: y

Req: Threshold query (filipin (z-score) >= -0.5) on O=C1Nc2ccc(Cl)cc2[C@@](C#CC2CC2)(C(F)(F)F)O1 [Efavirenz]
Resp: n

Req: Dear colleague, could you confirm whether COc1ccccc1N1CCN(CC(O)COc2cccc3ccccc23)CC1 (centres undefined) [Naftopidil dihydrochloride] has filipin (z-score) at or above -0.5?
Resp: y

Req: Assess whether reported filipin (z-score) for CCCCNc1cc(C(=O)O)cc(S(N)(=O)=O)c1Oc1ccccc1 [Bumetanide] sits at -0.5 or higher.
Resp: n

Req: Does filipin (z-score) meet or surpass -0.5 for Cc1ncc([N+](=O)[O-])n1CC(O)CCl (centres undefined) [Ornidazole] ?
Resp: y

Req: Could you verify whether the entry CCCCc1nc(Cl)c(CO)n1Cc1ccc(-c2ccccc2-c2nnn[nH]2)cc1 [Losartan] shows filipin (z-score) of no less than -0.5?
Resp: y

Req: Say whether CNCCCC1c2ccccc2C=Cc2ccccc21 [Protriptyline hydrochloride] shows filipin (z-score) of -0.5 or more.
Resp: y

Req: API: above_or_equal(metric=filipin (z-score), cutoff=-0.5) for item Cc1noc(NS(=O)(=O)c2ccc(N)cc2)c1C [Sulfisoxazole]
Resp: n
